Biological target: human recombinant M3 receptor (Homo sapiens, UniProt P20309)
Sequence (P20309 whole entry): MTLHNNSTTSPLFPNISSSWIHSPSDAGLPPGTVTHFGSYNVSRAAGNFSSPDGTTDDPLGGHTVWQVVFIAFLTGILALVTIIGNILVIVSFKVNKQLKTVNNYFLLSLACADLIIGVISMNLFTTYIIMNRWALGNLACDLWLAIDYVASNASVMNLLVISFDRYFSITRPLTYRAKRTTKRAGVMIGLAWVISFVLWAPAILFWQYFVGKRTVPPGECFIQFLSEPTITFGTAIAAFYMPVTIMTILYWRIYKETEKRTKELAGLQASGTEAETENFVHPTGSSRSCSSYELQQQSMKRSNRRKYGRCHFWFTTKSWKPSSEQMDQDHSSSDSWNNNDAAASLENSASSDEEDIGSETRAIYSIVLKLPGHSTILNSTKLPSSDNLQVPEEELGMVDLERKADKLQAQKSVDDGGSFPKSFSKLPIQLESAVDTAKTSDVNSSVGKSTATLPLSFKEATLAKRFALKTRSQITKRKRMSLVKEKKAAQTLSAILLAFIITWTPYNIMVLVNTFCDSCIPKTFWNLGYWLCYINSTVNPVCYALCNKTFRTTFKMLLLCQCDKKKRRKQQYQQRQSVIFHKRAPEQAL
Test: biochemical
Type: binding
Conditions: 3H-QNB […], 25° C., 5 h; read-out: hM3Ki
property: Ki (pM)
Give just the numeric value; pM need not be written.

Just so you know, measured Ki for `O=CNc1cc([C@@H](O)CNCc2c(Cl)cc(OCCC[N+]34CCC(CC3)[C@@H](OC[C@](O)(c3ccccc3)C3CCCC3)C4)cc2Cl)ccc1O.[Br-]` came out at 131

====

Residual rate after incubation of dog lung homogenate (%) values by entry
Assay: Lung homogenate stability in vitro (dog)
Assay type: in vitro ADME, Beagle dog
Details: 8 h, 37° C.
Give just the numeric value; % need not be written.

Just so you know, measured Residual rate after incubation of dog lung homogenate (%) for `OCc1cc([C@@H](O)CNCCCCCCCCC[N+]23CCC(CC2)[C@@H](OC[C@@](O)(c2ccccc2)C2CCCC2)C3)ccc1O.[Br-]` came out at 95

Just so you know, measured Residual rate after incubation of dog lung homogenate (%) for CC(NC[C@H](O)c1ccc(O)c(NC=O)c1)c1ccc(OCCC[N+]23CCC(CC2)[C@@H](OC[C@@](O)(c2ccccc2)C2CCCC2)C3)cc1.[Br-] (stereo partly drawn) came out at 96

====

Cdyn (ml/cmH2O) values by entry
Test system: bronchoconstriction response in the trachea of guinea pig induced by Mch
Experiment: Bronchoconstriction induced by methacholine (Mch) in anaesthetized guinea pigs, airway dripping (Raw, Cdyn)
Settings: 1 μg/kg airway dripping, 30 min, Mch 10 μg/kg iv, Mean ± S.E.M
Give just the numeric value; ml/cmH2O need not be written.

Consider the following illustrative entries.
• OCc1cc([C@@H](O)CNCCOCCCOCC[N+]23CCC(CC2)[C@@H](OC[C@@](O)(c2ccccc2)C2CCCC2)C3)ccc1O.[Br-] = 0.207
• COc1cc(NC(=O)CC[N+]23CCC(CC2)[C@@H](OC[C@@](O)(c2ccccc2)C2CCCC2)C3)c(Cl)cc1CNC[C@H](O)c1ccc(O)c(NC=O)c1.[Br-] = 0.231

Just so you know, measured Cdyn (ml/cmH2O) for COc1cc(C(C)NC[C@H](O)c2ccc(O)c(CO)c2)ccc1OCCC[N+]12CCC(CC1)[C@@H](OC[C@@](O)(c1ccccc1)C1CCCC1)C2.[Br-] (stereo partly shown) came out at 0.345

Just so you know, measured Cdyn (ml/cmH2O) for `CC(C)(Cc1ccc(OCC[N+]23CCC(CC2)[C@@H](OC[C@@](O)(c2ccccc2)C2CCCCC2)C3)cc1)NC[C@H](O)c1ccc(O)c(NC=O)c1.[Br-]` came out at 0.223

====

0.5-4 h area increase under heart rate curve (%) values by entry
System: heart rate of Beagle dogs
Assay: Heart rate changes after iv administration in Beagle dogs
Assay type: in vivo, Beagle dog
Conditions: 0.01 mg/kg iv
Give just the numeric value; % need not be written.

Consider the following illustrative entries.
* O=CNc1cc([C@@H](O)CNCCCOc2ccc(OCCC[N+]34CCC(CC3)[C@@H](OC[C@@](O)(c3ccccc3)C3CCCC3)C4)cc2)ccc1O | −3.4
* O=c1ccc2c([C@@H](O)CNCCCCCCCCC[N+]34CCC(CC3)[C@@H](OC[C@@](O)(c3ccccc3)C3CCCC3)C4)ccc(O)c2[nH]1.[Br-] | 1.2
* O=c1ccc2c([C@@H](O)CNCCCCCCCCCN3CCC(Cn4cnc([C@](O)(c5ccccc5)C5CCCCC5)n4)CC3)ccc(O)c2[nH]1 [reference compound] | 69.7
* O=c1ccc2c([C@@H](O)CNCCCOc3ccc(OCCC[N+]45CCC(CC4)[C@@H](OC[C@@](O)(c4ccccc4)C4CCCC4)C5)cc3)ccc(O)c2[nH]1.[Br-] | 10

Pending compound:
Just so you know, measured 0.5-4 h area increase under heart rate curve (%) for CC(Cc1ccc(OCC[N+]23CCC(CC2)[C@@H](OC[C@@](O)(c2ccccc2)C2CCCC2)C3)cc1)NC[C@H](O)c1ccc(O)c(NC=O)c1 (some centres unmarked) came out at 0
